- Target entity: METTL3/14 (Homo sapiens (Human))
- Sequence (Q86U44 whole entry): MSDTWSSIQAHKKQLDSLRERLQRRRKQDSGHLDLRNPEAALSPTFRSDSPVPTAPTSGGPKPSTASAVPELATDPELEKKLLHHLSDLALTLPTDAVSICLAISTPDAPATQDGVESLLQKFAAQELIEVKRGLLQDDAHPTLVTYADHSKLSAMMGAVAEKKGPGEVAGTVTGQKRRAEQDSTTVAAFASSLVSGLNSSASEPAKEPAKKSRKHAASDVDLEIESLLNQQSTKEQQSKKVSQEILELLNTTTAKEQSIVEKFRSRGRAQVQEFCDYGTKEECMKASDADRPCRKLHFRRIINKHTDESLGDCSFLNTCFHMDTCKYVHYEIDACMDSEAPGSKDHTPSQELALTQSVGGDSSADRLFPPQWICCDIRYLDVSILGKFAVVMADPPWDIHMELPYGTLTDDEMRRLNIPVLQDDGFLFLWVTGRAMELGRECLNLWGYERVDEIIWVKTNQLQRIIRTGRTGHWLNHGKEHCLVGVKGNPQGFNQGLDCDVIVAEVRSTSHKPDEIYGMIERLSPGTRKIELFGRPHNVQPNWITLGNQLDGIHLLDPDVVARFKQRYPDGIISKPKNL
- Sequence (Q9HCE5 whole entry partner): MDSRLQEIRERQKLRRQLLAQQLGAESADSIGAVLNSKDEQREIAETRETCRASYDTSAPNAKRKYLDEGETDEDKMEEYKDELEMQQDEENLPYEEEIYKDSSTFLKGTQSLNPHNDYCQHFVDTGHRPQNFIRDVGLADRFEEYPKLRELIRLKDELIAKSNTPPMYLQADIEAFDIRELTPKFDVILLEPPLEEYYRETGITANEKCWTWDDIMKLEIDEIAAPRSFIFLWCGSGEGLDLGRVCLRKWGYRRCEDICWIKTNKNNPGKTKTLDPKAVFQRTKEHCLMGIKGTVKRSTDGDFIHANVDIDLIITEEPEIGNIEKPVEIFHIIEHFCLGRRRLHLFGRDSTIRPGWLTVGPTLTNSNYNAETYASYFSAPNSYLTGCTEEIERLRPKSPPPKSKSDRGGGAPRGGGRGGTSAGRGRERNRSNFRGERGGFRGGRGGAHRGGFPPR
- Experiment: METTL3/14 methyltransferase assay (RapidFire mass spectrometry, RFMS)
- Experimental context: 5 nM METTL3/14, 0.2 μM RNA substrate, 0.5 μM SAM, 60 minutes at room temperature
Parameter measured: IC50 (nM)

Consider the worked cases shown below.
Nc1ncnc2c1c(Br)cn2[C@@H]1C[C@H](c2ccc(CN3CCC4(CCC4)C3)cc2)[C@@H](O)[C@H]1O [Example 35] : 63.7
Nc1ncnc2c1c(Br)cn2[C@@H]1O[C@H](/C=C/CCCNCc2ccccc2)[C@@H](O)[C@H]1O [Example 5] : 196

[P] Nc1ncnc2c1c(Br)cn2[C@@H]1O[C@H](/C=C/CCCN2CCC(F)(F)CC2)[C@@H](O)[C@H]1O [Example 23]
[Q] NCCC/C=C/[C@H]1O[C@@H](n2cc(Br)c3c(N)ncnc32)[C@H](O)[C@@H]1O [Example 8]
Exercise: Please choose the item with the lower IC50 value from this pair: P and Q Answer = label.
Key: P
